- Test system: HOP-62 NSCLC
- Assay notes: NCI tumour cell line growth inhibition, 48 h
The reader will find reported TGI values listed item by item below.
Numbers only; they are read as µM.

Compound: O=C(/C(=C\c1ccccc1)CN1CCOCC1)c1ccc(Br)cc1
Endpoint unit: µM
TGI: 13.1
//
Compound: NC(=O)c1cccc(N2Cc3ccccc3OC3=C2C(=O)c2c(O)ccc(O)c2C3=O)c1
Endpoint unit: µM
TGI: 5.96
//
Compound: Cc1c(C(=O)O)n(-c2ccc(Cl)cc2)c2ncnc(N)c12
Endpoint unit: µM
TGI: 58.6

# context switch: different compound, same TGI
QUERY: I would be grateful if you could share the reported TGI for CC(C)NCC(O)c1cc(OCc2ccccc2)c(OCc2ccccc2)cc1NC(=O)CCC(=O)O (stereo not given) .
RESULT: 29.7

---

- Test system: SNB-75 CNS
- Assay notes: NCI tumour cell line growth inhibition, 48 h; in the data active = GI50 below about 0.43 µM; inactive = the rest
I would appreciate it if you answered using one of these outcomes: t = active, f = inactive

Would you please look over these solved cases?
Molecule: Clc1ccc(/C=C2\CCCC3C2=Nc2ccccc2NC3c2ccc(Cl)cc2)cc1 (stereo unspecified)
Group label: f
//
Molecule: CC(=O)[CH-]C(C)=O.CC(=O)[CH-]C(C)=O.[CH2-]CCCCCCC.[CH2-]CCCCCCC.[Sn+4]
Group label: f
//
Molecule: Cn1cc(C2=C(c3cn(CCSC(=N)N)c4ccccc34)C(=O)NC2=O)c2ccccc21
Group label: f

QUERY: Hello, I am checking results. What call was entered for COc1cccc2c1-c1ccccc1C2=O ?
RESULT: f

QUERY: Hello, I am checking results. What call was entered for O=C(Nc1cccc(-c2cccc(F)c2)c1)C1CCN(Cc2cccc3cccnc23)CC1 ?
RESULT: f

QUERY: Hello, I am checking results. What call was entered for COC(=O)[C@@H](C[C@H](Cc1ccccc1)NC(=O)c1csc([C@@H](C[C@H](C(C)C)N(C)C(=O)[C@@H](NC(=O)[C@H]2CCCCN2C)C(C)C)OC(C)=O)n1)NC(=O)OCc1ccccc1 ?
RESULT: t

QUERY: Hello, I am checking results. What call was entered for COc1ccc(/C=N/C2=C(C#N)C(c3ccccc3)c3c(ccc4ccccc34)O2)cc1 (stereo unspecified) ?
RESULT: f

QUERY: Hello, I am checking results. What call was entered for FC(F)(F)c1ccc(-c2cncn2-c2ccccc2)cc1 ?
RESULT: f

QUERY: Hello, I am checking results. What call was entered for Cc1ccc(C2=C(c3ccc(C)cc3)C3(c4ccc(C)cc4)[C@@H](C#N)[C@H](C#N)C2(c2ccc(C)cc2)S3=O)cc1 (stereo partly specified) ?
RESULT: f

QUERY: Hello, I am checking results. What call was entered for CCCCCCNC(=O)Nc1ccc2cc3ccc(NC(=O)NCCCCCC)cc3nc2c1 ?
RESULT: f

QUERY: Hello, I am checking results. What call was entered for CO[C@H](C(=O)[C@@H](O)[C@@H](C)O)[C@@H]1Cc2cc3cc(O[C@H]4C[C@@H](O[C@H]5C[C@@H](O)[C@H](O)C(C)O5)[C@H](O)C(C)(O)O4)cc(O)c3c(O)c2C(=O)[C@H]1O[C@H]1C[C@@H](O[C@H]2C[C@@H](O[C@H]3C[C@@H](OC)[C@H](O)C(C)O3)[C@@H](O)C(C)O2)[C@H](O)C(C)O1 (stereo partly specified) ?
RESULT: t
